# measurement target: UniProtKB Q9H3R0
# Sequence (Q9H3R0 whole entry): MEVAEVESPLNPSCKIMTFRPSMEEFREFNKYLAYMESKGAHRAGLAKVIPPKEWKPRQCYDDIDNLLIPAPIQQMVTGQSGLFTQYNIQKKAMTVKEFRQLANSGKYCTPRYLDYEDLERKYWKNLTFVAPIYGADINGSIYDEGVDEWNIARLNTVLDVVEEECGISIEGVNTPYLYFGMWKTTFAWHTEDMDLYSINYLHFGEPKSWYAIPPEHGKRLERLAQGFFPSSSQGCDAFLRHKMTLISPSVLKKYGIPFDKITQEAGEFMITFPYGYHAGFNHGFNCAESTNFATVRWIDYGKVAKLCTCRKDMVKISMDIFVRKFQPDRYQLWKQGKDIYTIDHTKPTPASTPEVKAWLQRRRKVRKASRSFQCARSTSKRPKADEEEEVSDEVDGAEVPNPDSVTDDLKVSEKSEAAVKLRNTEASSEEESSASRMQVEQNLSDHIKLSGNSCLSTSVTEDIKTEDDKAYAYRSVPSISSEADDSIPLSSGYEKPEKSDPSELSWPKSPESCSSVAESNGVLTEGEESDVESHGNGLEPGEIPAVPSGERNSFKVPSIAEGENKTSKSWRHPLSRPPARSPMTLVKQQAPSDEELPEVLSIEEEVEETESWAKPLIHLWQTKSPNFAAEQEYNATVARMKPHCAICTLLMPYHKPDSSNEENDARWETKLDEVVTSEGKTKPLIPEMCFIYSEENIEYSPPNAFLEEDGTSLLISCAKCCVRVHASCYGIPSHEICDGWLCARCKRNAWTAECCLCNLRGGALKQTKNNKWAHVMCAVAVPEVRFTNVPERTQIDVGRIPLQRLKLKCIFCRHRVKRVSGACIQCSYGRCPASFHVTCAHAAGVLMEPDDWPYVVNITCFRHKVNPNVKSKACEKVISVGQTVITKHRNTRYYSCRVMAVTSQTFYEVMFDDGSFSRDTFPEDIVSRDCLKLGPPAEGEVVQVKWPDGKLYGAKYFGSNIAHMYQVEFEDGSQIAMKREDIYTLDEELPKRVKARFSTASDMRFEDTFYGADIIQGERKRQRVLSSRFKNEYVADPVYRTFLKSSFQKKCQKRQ
Could you please report measured IC50 for the items listed next?

Worked examples follow.
O=C(O)c1cc[nH]n1 :: > 200 µM
[O-][n+]1nn(-c2ccccc2)c(Cl)c1Cl :: > 200 µM
O=C(O)c1cn(-c2ccccc2)nn1 :: > 200 µM

Count: 6. Required value per item: IC50.
1. Cc1ccc(Cn2cc(C(=O)O)nn2)cc1
2. N#Cc1cccnc1Nc1cccnc1Cl
3. [O-][n+]1nn(-c2ccccc2)c(Br)c1Br
4. O=C(O)c1cc(C(=O)O)[nH]n1
5. [O-][n+]1nn(-c2ccccc2)c(Br)c1Cl
6. Cn1cc(N)nn1

Reply:
> 200 µM
> 200 µM
> 200 µM
> 200 µM
> 200 µM
> 200 µM

For each of the molecules below, note its IC50.
1. CN1C=C(Br)N(O)N1
2. COC(=O)c1n[nH]c(C(=O)OC)c1O
3. CN1CN(Cc2ccccc2)C=C1S
4. COc1c(-c2ccccc2)nnn1C

Reply:
> 200 µM
30 µM
> 200 µM
> 200 µM

Provide reported IC50 for each item, in the same order as listed.
1. COc1ccc(Cn2nnc(C(=O)O)c2N)cc1
2. Cc1c(O)c(C(=O)c2ccccc2)nn1-c1ccccc1
3. CCOC(=O)c1[nH]nnc1C
4. OB(O)c1cc[nH]n1
5. O=C1CN=C(c2ccccc2)c2cc([N+](=O)[O-])ccc2N1
6. COn1nnc(C(=O)O)c1C(=O)O

Reply:
> 200 µM
> 200 µM
> 200 µM
> 200 µM
> 200 µM
> 200 µM

Give one value of IC50 per listed molecule.
1. [O-][n+]1nn(Cc2ccccc2)cc1Cl
2. Cn1cc(C(=O)O)nn1
3. C[n+]1nn(Cc2ccccc2)cc1Cl
4. Cn1cc(Br)nc1-c1ccccc1

Reply:
1. > 200 µM
2. > 200 µM
3. > 200 µM
4. > 200 µM

Task item: Using the record for Cn1c(Cl)cnc1CO , report its IC50.
Reply: > 200 µM

Data provenance: ChEMBL document CHEMBL2069183
